The entries below come with measured %Inh values attached.
test system: STK39; conditions: concentration: 1 μM, replicates: in singlicate; n = 1;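 note: KINOMEscan kinase panel screen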
Return type: number; implicit unit %.

Solved cases below.
molecule	%Inh / %
Cc1cccc2c(-c3ccncn3)c(-c3ccc(F)cc3)nn12	0
COC(=O)c1cccc(NC(=O)NC2CCN(c3ccnc(Nc4ccc(OC)cc4)n3)C2)c1 (stereo not drawn)	5
NS(=O)(=O)c1cccc(N/C=C2\C(=O)Nc3ccc(S(=O)(=O)Cc4c(Cl)cccc4Cl)cc32)c1	0

input: Quick one: %Inh for FC(F)(F)c1ccccc1-c1cc(-c2c[nH]nc2-c2ccccn2)ccn1 ?
output: 7

input: Which %Inh is reported for this molecule? CCCCc1nn2ncccc2c1-c1ccnc(NC2CC2)n1
output: 0

input: Any idea what its %Inh is? The molecule is Cc1ccc(NC(=O)c2ccc(Cl)cc2)cc1-c1ccc(C(=O)Nc2ccncc2)cc1
output: 6
